Tested on: mouse embryo fibroblast (NIH3T3)
Assay: sulforhodamine B cell cytotoxicity assay, NIH3T3 non-cancer cells
Type: cell-based
Conditions: read-out: IC50 fibroblast cells NIH3T3
measured.attribute: IC50

q: Please indicate recorded IC50 of CCOC(=O)c1cc2cc(C=CC(=O)c3ccc(C)cc3)cc(C(C)CC)c2oc1=O (stereo not shown) [Example S009-0131] measured with mouse embryo fibroblast (NIH3T3).
a: > 150 µM

* * *

Parameter melting point: see the listing below.

Reference set (3 entries):
q: For CCC(C)c1cc(/C=C/C(=O)c2ccc(C)cc2)cc2cc(C(=O)NC)c(=O)oc12 (stereo not shown) , write its melting point.
a: 215 to 216 °C

q: For CCOC(=O)c1cc2cc(C=O)cc(C(C)CC)c2oc1=O (stereo not shown) , write its melting point.
a: 89 to 90 °C

q: For Cc1ccc(C(=O)/C=C/c2cc(C(C)(C)C)c3oc(=O)c(C(=O)O)cc3c2)cc1 , write its melting point.
a: 185 to 186 °C

Next:
q: For COC(=O)c1cc2cc(/C=C/C(=O)c3cc(OC)c(OC)c(OC)c3)cc(C(C)(C)C)c2oc1=O , write its melting point.
a: 145 to 146 °C

q: For CCC(C)c1cc(/C=C/C(=O)c2ccc(C)cc2)cc2cc(C(=O)N(CC)CC)c(=O)oc12 (stereo not shown) , write its melting point.
a: 146 to 147 °C

q: For CCN(CC)C(=O)c1cc2cc(/C=C/C(=O)c3ccc(C)cc3)cc(C(C)(C)C)c2oc1=O , write its melting point.
a: 170 to 171 °C

q: For CCC(C)c1cc(/C=C/C(=O)c2cc(OC)c(OC)c(OC)c2)cc2cc(C(=O)OC)c(=O)oc12 (stereo not shown) , write its melting point.
a: 138 to 139 °C

Where do these numbers come from? They come from patent US8815940B2.
